# test-protocol: In vivo utilization: single injection via vena cava catheter, plasma peptide/amino acid concentrations by RP-HPLC after DANSYL derivatization
# Parameters: species or system male Wistar-rats
# conditions: male, Wistar, rat, plasma, iv; 20 μmole/100 g bw; concluded from data, not calculable; read-out: plasma half-life
Where a SMILES comes first, the peptide text is derived from it. Bridges are numbered along the chain shown (N, C = ends). Roman numbers before positions name the chains, in order.
assay-endpoint: half-life

half-life reported for this compound C[C@H](N)C(=O)N[C@@H](CSSC[C@H](NC(=O)[C@H](C)N)C(=O)O)C(=O)O [(ala-cys)2, N,N'-bis-L-alanyl-L-cystine] (I: H-Ala-Cys-OH / II: H-Ala-Cys-OH; disulfide I:2-II:2) : < 2 min
